Cited source: paper PMC8297771

# Procedure Text: In vivo pharmacokinetics in beagle dogs
# Condition Description: male, plasma, iv, Dog, 2 mg/kg (i.v)

Chemical Smiles: Cc1nc2c(c(C)c(C)n2Cc2cnn(C)c2)c(-c2ccc(Cl)cc2)c1[C@H](OC(C)(C)C)C(=O)O
half-life [h]: 6.11

---

# Procedure Text: In vivo pharmacokinetics in beagle dogs
# Condition Description: male, plasma, iv, Dog, 2 mg/kg (i.v)
Assay Metric: AUC (µM·h)

Compound: Cc1nc2c(c(C)c(C)n2Cc2cnn(C)c2)c(-c2ccc(Cl)cc2)c1[C@H](OC(C)(C)C)C(=O)O [STP0404]
Numeric Result: 9.26

---

# Procedure Text: Microsomal stability determination
# Format: in vitro ADME, animal and human
# Condition Description: human, liver microsomes; all tested species; read-out: microsomal stability T1/2
# Description: A liver microsome (LM) stability assay was […] of incubation at 0, 10, 20, 30 and 60 min with a […] STP0404 initial concentration. All plates were shaken and centrifuged at 3200 x g for 20 mins. Then 100 μL of supernatant was taken from each well and diluted with 300 μL pure water before analyzed by LC/MS/MS. Animal and human liver microsomes were purchased from Wuxi AppTec, Xenotech or Corning and stored in a freezer (lower than -60°C) before use (Wuxi AppTec, China).
Assay Metric: half-life at 1 μL

Chemical Smiles: Cc1nc2c(c(C)c(C)n2Cc2cnn(C)c2)c(-c2ccc(Cl)cc2)c1[C@H](OC(C)(C)C)C(=O)O
Assay Metric: half-life at 1 μL
Result: > 2.22 h

---

# Procedure Text: In vivo pharmacokinetics in SD rats
# Condition Description: Sprague-Dawley, plasma, po; Rat; 10 mg/kg (p.o)

Chemical Smiles: Cc1nc2c(c(C)c(C)n2Cc2cnn(C)c2)c(-c2ccc(Cl)cc2)c1[C@H](OC(C)(C)C)C(=O)O
half-life: 4.56 h

---

# Procedure Text: In vivo pharmacokinetics in beagle dogs
# Condition Description: male, plasma, po, Dog, 2 mg/kg (p.o), read-out: Ft (oral bioavailability)
Assay Metric: bioavailability (%)

Chemical Smiles: Cc1nc2c(c(C)c(C)n2Cc2cnn(C)c2)c(-c2ccc(Cl)cc2)c1[C@H](OC(C)(C)C)C(=O)O
Result Unit: %
Numeric Result: 50.6

---

# Assay System: full-length IN (Human immunodeficiency virus type 1 group M subtype B, UniProt P12497)
# Construct: between two full-length IN protein populations differentially labeled
# Procedure Text: HTRF-based IN multimerization assay
Assay Metric: EC50 (nM)

Chemical Smiles: Cc1nc2c(c(C)c(C)n2Cc2cnn(C)c2)c(-c2ccc(Cl)cc2)c1[C@H](OC(C)(C)C)C(=O)O
Result Unit: nM
Numeric Result: 147

---

# Procedure Text: In vivo pharmacokinetics in SD rats
# Condition Description: Sprague-Dawley, plasma, iv; Rat; 5 mg/kg (i.v)
Assay Metric: half-life (h)

Chemical Smiles: Cc1nc2c(c(C)c(C)n2Cc2cnn(C)c2)c(-c2ccc(Cl)cc2)c1[C@H](OC(C)(C)C)C(=O)O
Numeric Result: 3.83

---

# Procedure Text: Four-week oral dose toxicology study in dogs (GLP)
# Type: in vivo, beagle dogs
# Condition Description: both sexes, beagle, dog, in vivo; male and female dogs; four-week oral

Chemical Smiles: Cc1nc2c(c(C)c(C)n2Cc2cnn(C)c2)c(-c2ccc(Cl)cc2)c1[C@H](OC(C)(C)C)C(=O)O
NOAEL at 4 weeks, mg/kg/day: 90
